Assay: Encapsulation efficiency and mRNA quantity by Ribogreen fluorescence plate assay
Format: physicochemical
Details: LNP with mRNA payload formulated with the lipid; 16.8/4.0/2.0/1.0; Lipids:mRNA 25:1
Quantity kind: [mRNA] Ug/ml (Ug/ml)

CC/C=C\CCCC[Se]CCOC(=O)CCN(CCCN(C)CCCN(CCC(=O)OCC[Se]CCCC/C=C\CC)CCC(=O)OCC[Se]CCCC/C=C\CC)CCC(=O)OCC[Se]CCCC/C=C\CC
91.2
CCCCCCCCC(CCC)OC(=O)OCCOC(=O)CCN(CCCN(C)CCCN(CCC(=O)OCCOC(=O)OC(CCC)CCCCCCCC)CCC(=O)OCCOC(=O)OC(CCC)CCCCCCCC)CCC(=O)OCCOC(=O)OC(CCC)CCCCCCCC (stereo not drawn)
66.8
CCCCCCC(CCCC)COC(=O)NCCNC(=O)CCN(CCCN(C)CCCN(CCC(=O)OCCNC(=O)OCC(CCCC)CCCCCC)CCC(=O)OCCNC(=O)OCC(CCCC)CCCCCC)CCC(=O)NCCNC(=O)OCC(CCCC)CCCCCC (stereo not drawn)
74
CCCCCCCCCC(CC)OC(=O)OCCOC(=O)CCN(CCCN(C)CCCN(CCC(=O)OCCOC(=O)OC(CC)CCCCCCCCC)CCC(=O)OCCOC(=O)OC(CC)CCCCCCCCC)CCC(=O)OCCOC(=O)OC(CC)CCCCCCCCC (stereo not drawn) [Lipid L0660]
71
CCCCCCC(CCCC)COC(=O)OCCOC(=O)CCN(CCCN(CCCNC(=S)NC)CCCN(CCC(=O)OCCOC(=O)OCC(CCCC)CCCCCC)CCC(=O)OCCOC(=O)OCC(CCCC)CCCCCC)CCC(=O)OCCOC(=O)OCC(CCCC)CCCCCC (stereo not drawn)
95.3
CC/C=C\CCCCOC(=O)CCN(CCCN(C)CCCN(CCC(=O)OCCCC/C=C\CC)CCC(=O)OCCOC(=O)OCC(CCCC)CCCCCC)CCC(=O)OCCCC/C=C\CC (stereo not drawn)
78
CCC1CC1CCCCSSCCOC(=O)CCN(CCCN(C)CCCN(CCC(=O)OCCSSCCCCC1CC1CC)CCC(=O)OCCSSCCCCC1CC1CC)CCC(=O)OCCSSCCCCC1CC1CC (stereo not drawn)
78
CCCCCCC(CCCC)COC(=O)OCCOC(=O)CCN(CCCN(C)CCCN(CCC(=O)OCCOC(=O)OCC(CCCC)CCCCCC)CCC(=O)OCCOC(=O)OCC(CCCC)CCCCCC)CCC(=O)OCCOC(=O)OCC(CCCC)CCCCCC (stereo not drawn)
69.7
CC(C)CCCCCCCCSSCCOC(=O)CCN(CCCN(C)CCCN(CCC(=O)OCCSSCCCCCCCCC(C)C)CCC(=O)OCCSSCCCCCCCCC(C)C)CCC(=O)OCCSSCCCCCCCCC(C)C [Lipid L0814]
90.2
